Study Target: isolated ZZ-DZB domain of KCMF1 (human)
Sequence (chain, as listed by the source): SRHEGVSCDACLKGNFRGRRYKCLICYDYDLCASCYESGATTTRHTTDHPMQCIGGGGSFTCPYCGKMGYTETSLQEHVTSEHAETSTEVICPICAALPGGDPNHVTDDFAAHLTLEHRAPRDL
Experimental Protocol: ITC
Measured Quantity: pKd
Units for pKd: none; it is -log10 of a concentration expressed in mol/L.

-- ask Annotate the binder RTGG [^NRT peptide (ITC)] with its measured pKd.
-- reply 5.15
